subject-of-test: Metabotropic glutamate receptor 3 (Rattus norvegicus)
Sequence (P31422 whole entry): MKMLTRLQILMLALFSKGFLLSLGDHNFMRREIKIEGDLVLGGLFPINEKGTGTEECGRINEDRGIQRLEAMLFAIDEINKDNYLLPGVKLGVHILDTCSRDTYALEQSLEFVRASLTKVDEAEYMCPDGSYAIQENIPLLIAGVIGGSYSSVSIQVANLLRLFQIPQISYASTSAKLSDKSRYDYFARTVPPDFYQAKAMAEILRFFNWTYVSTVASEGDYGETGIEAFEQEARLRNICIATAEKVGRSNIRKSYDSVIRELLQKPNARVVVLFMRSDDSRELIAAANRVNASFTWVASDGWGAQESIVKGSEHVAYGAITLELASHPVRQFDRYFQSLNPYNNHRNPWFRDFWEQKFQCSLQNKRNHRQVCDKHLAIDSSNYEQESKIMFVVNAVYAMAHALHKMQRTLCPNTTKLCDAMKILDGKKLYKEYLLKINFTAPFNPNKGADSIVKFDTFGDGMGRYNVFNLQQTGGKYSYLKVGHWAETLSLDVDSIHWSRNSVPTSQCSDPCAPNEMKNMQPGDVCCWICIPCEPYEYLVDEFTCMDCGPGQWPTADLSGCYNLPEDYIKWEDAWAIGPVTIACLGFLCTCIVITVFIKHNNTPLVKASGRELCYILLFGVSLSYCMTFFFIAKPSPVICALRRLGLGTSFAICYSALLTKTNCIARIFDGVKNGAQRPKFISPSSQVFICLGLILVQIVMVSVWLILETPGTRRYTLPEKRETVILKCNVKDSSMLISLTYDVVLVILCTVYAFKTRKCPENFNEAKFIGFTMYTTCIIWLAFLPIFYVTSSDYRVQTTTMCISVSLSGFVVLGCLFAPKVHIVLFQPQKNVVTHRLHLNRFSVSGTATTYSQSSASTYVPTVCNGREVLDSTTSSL
method-description: Effective concentration required for agonistic activity at Metabotropic glutamate receptor 3
Format: functional
reported-metric: EC50 (µM)
# output: bare number, implied unit µM

(Q) Quick one: EC50 for Cl.Cl.Cl.N[C@]1(C(=O)O)C[C@H](C(=O)O)N(Cc2ccccn2)C1 ?
(A) 37

(Q) Given the entry N[C@]1(C(=O)O)C[C@H](C(=O)O)N(Cc2ccccc2[N+](=O)[O-])C1 , report its measured EC50.
(A) 6.8

(Q) I'd like to know its EC50. The compound in question is N[C@@]1(C(=O)O)CN[C@@H](C(=O)O)C1
(A) 1.7

* * *

subject-of-test: UniProt:P31422
method-description: Inhibitory concentration required for antagonistic activity at Metabotropic glutamate receptor 3; Not active
Type: functional
reported-metric: IC50

Guide cases for IC50, answers given:
Cl.Cl.N[C@]1(C(=O)O)C[C@H](C(=O)O)N(Cc2ccccc2C(=O)O)C1
Not Active
Cl.Cl.N[C@]1(C(=O)O)C[C@H](C(=O)O)N(Cc2cc([N+](=O)[O-])cc([N+](=O)[O-])c2)C1
Not Active
Cl.Cl.Cl.Nc1ccc(CN2C[C@@](N)(C(=O)O)C[C@@H]2C(=O)O)cc1
Not Active
Cl.Cl.Cl.Nc1ccccc1CN1C[C@@](N)(C(=O)O)C[C@@H]1C(=O)O
Not Active
Cl.Cl.N[C@]1(C(=O)O)C[C@H](C(=O)O)N(Cc2cccc(C(=O)O)c2)C1
Not Active

(Q) # get_value(readout='IC50', item= Cl.Cl.N[C@]1(C(=O)O)C[C@H](C(=O)O)N(Cc2cccc(O)c2)C1 )
(A) Not Active

(Q) What does the data say about its IC50? Entry: Cl.Cl.N[C@]1(C(=O)O)C[C@H](C(=O)O)N(Cc2ccc([N+](=O)[O-])cc2)C1
(A) Not Active

(Q) So what does the record say about IC50 for Cl.Cl.N[C@]1(C(=O)O)C[C@H](C(=O)O)N(CC(=O)O)C1 ?
(A) Not Active

(Q) Form field: reported IC50 of Cl.Cl.N[C@]1(C(=O)O)C[C@H](C(=O)O)N(Cc2ccc(C(=O)O)cc2)C1
(A) Not Active

* * *

Reported values of EC50 for individual entries
subject-of-test: Metabotropic glutamate receptor 2 (Rattus norvegicus, UniProt P31421)
Sequence (P31421 whole entry): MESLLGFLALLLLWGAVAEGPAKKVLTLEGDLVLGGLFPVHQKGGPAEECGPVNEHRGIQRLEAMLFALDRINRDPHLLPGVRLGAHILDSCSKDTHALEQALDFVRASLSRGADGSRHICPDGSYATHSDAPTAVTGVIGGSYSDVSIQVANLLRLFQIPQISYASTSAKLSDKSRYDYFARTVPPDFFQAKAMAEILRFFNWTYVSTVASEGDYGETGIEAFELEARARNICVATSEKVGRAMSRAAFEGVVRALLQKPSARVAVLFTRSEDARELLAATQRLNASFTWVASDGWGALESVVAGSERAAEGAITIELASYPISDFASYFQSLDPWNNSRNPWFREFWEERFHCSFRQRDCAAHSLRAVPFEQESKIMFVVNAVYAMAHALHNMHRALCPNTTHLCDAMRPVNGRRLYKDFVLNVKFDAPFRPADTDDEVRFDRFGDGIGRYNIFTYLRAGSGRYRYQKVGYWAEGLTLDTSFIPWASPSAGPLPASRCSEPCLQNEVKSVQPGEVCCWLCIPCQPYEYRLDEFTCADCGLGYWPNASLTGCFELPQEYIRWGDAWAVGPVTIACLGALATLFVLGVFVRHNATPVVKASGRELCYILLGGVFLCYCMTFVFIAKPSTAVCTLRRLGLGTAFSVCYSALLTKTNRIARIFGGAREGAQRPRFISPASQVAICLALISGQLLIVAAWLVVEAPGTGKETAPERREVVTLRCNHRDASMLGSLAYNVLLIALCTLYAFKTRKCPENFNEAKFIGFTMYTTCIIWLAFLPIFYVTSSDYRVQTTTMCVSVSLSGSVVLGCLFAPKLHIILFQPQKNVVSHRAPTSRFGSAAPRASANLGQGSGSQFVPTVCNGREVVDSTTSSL
method-description: Effective concentration required for partial agonistic activity at Metabotropic glutamate receptor 2; Partial agonist
Format: functional
The response must be a number in nM with no trailing unit.

Cl.Cl.N[C@]1(C(=O)O)C[C@H](C(=O)O)N(CC(=O)O)C1
610
Cl.Cl.Cl.Nc1ccc(CN2C[C@@](N)(C(=O)O)C[C@@H]2C(=O)O)cc1
2300

Then there is this molecule:
(Q) Fill in: EC50 of Cl.Cl.N[C@]1(C(=O)O)C[C@H](C(=O)O)N(Cc2ccc(C(=O)O)cc2)C1 is ___
(A) 4700

* * *

subject-of-test: Metabotropic glutamate receptor 2 (Rattus norvegicus, UniProt P31421)
method-description: Effective concentration required for agonistic activity at Metabotropic glutamate receptor 2
Type: functional
Could you please mark true for values of EC50 below 6 µM and false for values at or above it?

Cl.Cl.N[C@]1(C(=O)O)C[C@H](C(=O)O)N(Cc2ccc([N+](=O)[O-])cc2)C1
false
Cl.Cl.N[C@]1(C(=O)O)C[C@H](C(=O)O)N(Cc2ccccc2C(=O)O)C1
false

(Q) I'd appreciate it if you could check whether Cl.Cl.Cl.Nc1ccccc1CN1C[C@@](N)(C(=O)O)C[C@@H]1C(=O)O has EC50 smaller than 6 µM.
(A) false

(Q) Please state whether EC50 is below 6 µM for N[C@]1(C(=O)O)C[C@H](C(=O)O)N(Cc2ccccc2[N+](=O)[O-])C1
(A) true

(Q) Consider N[C@@]1(C(=O)O)CN[C@@H](C(=O)O)C1 . Does its EC50 lie strictly below 6 µM?
(A) true
